Values compiled from patent US7435740B2.

Target: human recombinant A1 adenosine receptor (Homo sapiens, UniProt P30542)
Sequence (P30542 whole entry): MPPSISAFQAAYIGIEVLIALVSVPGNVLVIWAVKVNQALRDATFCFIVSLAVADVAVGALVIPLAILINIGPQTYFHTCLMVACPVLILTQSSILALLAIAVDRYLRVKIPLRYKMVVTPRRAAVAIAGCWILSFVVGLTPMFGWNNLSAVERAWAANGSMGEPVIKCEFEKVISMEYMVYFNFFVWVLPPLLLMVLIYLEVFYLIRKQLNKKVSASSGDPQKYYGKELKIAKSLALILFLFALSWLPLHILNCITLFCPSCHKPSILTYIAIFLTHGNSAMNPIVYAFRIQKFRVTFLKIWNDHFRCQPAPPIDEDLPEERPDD
Assay: [3H]-DPCPX binding to human A1 adenosine receptor expressed in CHO cells
Details: percentage given after the > bound; meaning not defined in the patent
Reported [3H] DPCPX binding to hA1, percentage in parentheses values for a set of compounds
Give the number; % is assumed, so skip it.

Worked cases, answers included:
>>> meas_value("CCCn1c(=O)c2c(nc3[nH]c(CC)c(C)n32)n(Cc2ccccc2)c1=O")
80
>>> meas_value("CCCn1c(=O)c2c(nc3n2CC(c2ccccc2)=NN3C)n(Cc2ccccc2)c1=O")
79
>>> meas_value("CCCn1c(=O)c2c(nc3n2C(C)C(C)=C3)n(Cc2ccccc2)c1=O (centres unmarked)")
65
>>> meas_value("CCCn1c(=O)c2c(nc3[nH]c(-c4ccc(OC)cc4)cn32)n(Cc2ccccc2)c1=O")
99

Continue with the next compound.
Could you share which [3H] DPCPX binding to hA1, percentage in parentheses value was measured for `Cc1cn2c(nc3c2c(=O)n(C)c(=O)n3C)[nH]1` ?
96
